Values compiled from ChEMBL document CHEMBL1811804.

target: Cannabinoid receptor 2 (Homo sapiens, UniProt P34972); test: Displacement of [3H]CP-55,940 from human CB2 receptor expressed in CHO-K1 cells after 90 mins by scintillation counting; format: cell-based
Sequence (P34972 whole entry): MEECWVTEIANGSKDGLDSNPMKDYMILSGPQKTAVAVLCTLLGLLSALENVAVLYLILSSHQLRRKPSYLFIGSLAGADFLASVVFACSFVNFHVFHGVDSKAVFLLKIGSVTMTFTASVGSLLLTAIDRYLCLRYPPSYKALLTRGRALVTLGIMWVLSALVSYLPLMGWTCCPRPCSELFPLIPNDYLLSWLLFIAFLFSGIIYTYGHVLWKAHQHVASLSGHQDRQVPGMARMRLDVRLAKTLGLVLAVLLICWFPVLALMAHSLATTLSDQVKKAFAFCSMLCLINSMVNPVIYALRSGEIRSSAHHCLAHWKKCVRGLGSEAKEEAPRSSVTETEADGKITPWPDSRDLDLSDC
VALUE KIND: pIC50
Note on pIC50: it is the negative log10 of concentration, concentration in mol/L.

Supply recorded pIC50 for C/C=C/C=C/C=C/c1c(O)cc(CC=C(C)C)c(O)c1C=O here. 4.70

* * *

target: Delta-type opioid receptor (Homo sapiens, UniProt P41143); assay: Binding affinity at human delta opioid receptor expressed in CHO-K1 cells at 10 uM; type: cell-based
Sequence (P41143 whole entry): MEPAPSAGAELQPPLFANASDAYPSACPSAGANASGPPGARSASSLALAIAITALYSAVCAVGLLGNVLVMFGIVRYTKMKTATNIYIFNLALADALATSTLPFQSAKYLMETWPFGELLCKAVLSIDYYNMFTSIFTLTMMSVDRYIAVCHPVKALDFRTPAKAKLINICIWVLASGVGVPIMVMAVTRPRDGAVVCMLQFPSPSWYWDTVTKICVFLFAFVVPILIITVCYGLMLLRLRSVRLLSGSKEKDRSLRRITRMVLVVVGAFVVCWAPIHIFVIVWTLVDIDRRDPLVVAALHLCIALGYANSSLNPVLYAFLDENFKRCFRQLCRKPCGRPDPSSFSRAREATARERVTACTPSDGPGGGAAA
VALUE KIND: Activity

Supply recorded Activity for Cc1c(O)cc(O)c2c1COC2=O here. < 40%

Supply recorded Activity for C=CC(C)(C)c1[nH]c2c(CC=C(C)C)cc(CC=C(C)C)cc2c1C[C@@H]1NC(=O)[C@H](C)NC1=O here. < 40%

Supply recorded Activity for CCCCC/C=C/c1c(O)cc(CC=C(C)C)c(O)c1CO here. 62.2%

Supply recorded Activity for C/C=C/C=C/C=C/c1c(O)cc(CC=C(C)C)c(O)c1C=O here. < 40%

Supply recorded Activity for CCCCCCCc1c(O)cc(CC=C(C)C)c(O)c1C=O here. 52.5%

Supply recorded Activity for CCCCC/C=C/c1c(O)cc(CC=C(C)C)c(O)c1C=O [TETRAHYDROAUROGLAUCIN] here. < 40%

Supply recorded Activity for CCCCC/C=C/c1c(O)cc(CC=C(C)C)c2c1CC(O)O2 (centres undefined) here. < 40%

Supply recorded Activity for CCC/C=C/C=C/c1c(O)cc(CC=C(C)C)c(O)c1C=O here. < 40%

Supply recorded Activity for CCC/C=C/c1cc2c(C=O)c(O)c(CC=C(C)C)cc2o1 here. < 40%
